# protocol.description: Multi-component pharmacokinetics in rat plasma after oral administration of RB, RPA or RB-RPA extracts (UPLC-HRMS, non-compartmental analysis)
# Format: in vivo, Sprague-Dawley rats
# measurement.setup: male, Sprague-Dawley, rat, plasma, po, 45 g/kg, rat plasma, oral RB single extract 45 g-herb/kg, mean ± SD, n = 7
# Description: (Beijing, China, No. SCXK2018-0011). […] All rats were free to access the water and food until 12 h before the experiment. […] So, we applied the method of switching ion modes in the detection process to quantify all analytes better. […] UPLC/MS/MS calibration and quantitation data were processed with Xcalibur workstation (Thermo-Fisher Scientific Inc., Waltham, MA, United States). […]
readout.type: AUC(0-inf) (ng·h/mL)

| compound | measured |
| --- | --- |
| C[C@H]1O[C@@H](O[C@H]2CC[C@@]3(C)[C@@H](CC[C@]4(C)[C@@H]3C=C[C@]35OC[C@@]6(CCC(C)(C)C[C@H]63)[C@@H](O)C[C@]54C)[C@]2(C)CO)[C@H](O)[C@@H](O[C@@H]2O[C@H](CO)[C@@H](O)[C@H](O)[C@H]2O)[C@H]1O [Saikosaponin A] | 104 |
